Where these numbers come from: patent US12491170B2

- assay_info: Stability in liver microsomes, human
endpoint_name: Trep Concentration 10 min (µM)
Respond with the bare value in µM.

Reference set, count: 3
molecule | Trep Concentration 10 min [µM]
CCCCCC(CCC1C(O)CC2Cc3c(cccc3OCC(=O)O)CC21)OC (centres unmarked) | 0.104
CCCCCC(CCC1C(O)CC2Cc3c(cccc3OCC(=O)O)CC21)OCC (centres unmarked) | 0.0448
CCCCCC(CCC1C(O)CC2Cc3c(cccc3OCC(=O)O)CC21)OP(=O)(O)O (centres unmarked) | 0.038

## Input Which measured Trep Concentration 10 min value corresponds to CCCCCC(CCC1C(O)CC2Cc3c(cccc3OCC(=O)O)CC21)OC(=O)CN (centres unmarked) ?
## Output 0.132

## Input Param item: CCCCCC(CCC1C(O)CC2Cc3c(cccc3OCC(=O)O)CC21)OC(=O)OCC (centres unmarked)
## Output 0.6

----------
- assay_info: Stability in liver microsomes, dog
- Experimental: Mixed-gender human liver microsomes, male Sprague-Dawley rat liver microsomes, and male Beagle dog liver microsomes were purchased from XenoTech. The reaction mixture, minus NADPH, was prepared as described below. […] Aliquots of the supernatant were removed, diluted 1:1 into distilled water containing internal standard, and analyzed by LC-MS/MS against calibration standards prepared in a matched matrix. All samples were analyzed for the dosed prodrugs as well as the drug, treprostinil. […]
Trep Concentration 20 min values for the compounds below.
Include the unit right after the number.

Reference set, count: 4
compound | value_reported
CCCCCC(CCC1C(O)CC2Cc3c(cccc3OCC(=O)O)CC21)OC(=O)c1ccc(OC(F)(F)F)cc1 (centres unmarked) | 0.222 µM
CCCCCC(CCC1C(O)CC2Cc3c(cccc3OCC(=O)O)CC21)OP(=O)(O)O (centres unmarked) | 0.43 µM
CCCCC[C@H]1CC[C@@H]2[C@H]3Cc4cccc(OCC(=O)O)c4C[C@H]3C[C@H]2OC(=O)O1 | 0.948 µM
CCCCCC1CCC2C(CC3Cc4c(cccc4OCC(=O)O)CC32)OP(=O)(Oc2ccccc2)O1 (mixture of isomers) | 0.00553 µM

Switching to the query record.
## Input Which measured Trep Concentration 20 min value corresponds to `CCCCC[C@@H](CC[C@@H]1[C@H]2Cc3cccc(OCC(=O)O)c3C[C@H]2C[C@H]1O)OC(=O)[C@@H](N)C(C)C` ?
## Output 0.0177 µM

----------
- assay_info: Stability in cryopreserved hepatocytes, rat
- test_settings: rat
AUC values for the molecules below.
Respond with the bare value in µmol·min/L.

## Input Which measured AUC value corresponds to CCCCCC(CCC1C(O)CC2Cc3c(cccc3OCC(=O)O)CC21)OC(=O)COc1ccc(OC(F)(F)F)cc1 (centres unmarked) ?
## Output 29.21

## Input Param item: CCCCCC(CCC1C(O)CC2Cc3c(cccc3OCC(=O)O)CC21)OC(=O)CCC(=O)N1CCOCC1 (centres unmarked)
## Output 19.34

## Input Param item: CCCCCC(CCC1C(O)CC2Cc3c(cccc3OCC(=O)O)CC21)OC(=O)c1cccc(O)c1 (centres unmarked)
## Output 5.14

## Input Param item: CCCCCC(CCC1C(O)CC2Cc3c(cccc3OCC(=O)O)CC21)OC(=O)CC (centres unmarked)
## Output 49.32

## Input Param item: CCCCCC(CCC1C(O)CC2Cc3c(cccc3OCC(=O)O)CC21)OP(=O)(O)O (centres unmarked)
## Output 66.92

## Input Param item: CCCCCC(CCC1C(O)CC2Cc3c(cccc3OCC(=O)O)CC21)OC(=O)c1ccc(C)cc1 (centres unmarked)
## Output 24.16

----------
- test_settings: dog
endpoint_name: AUC (µmol·min/L)
Respond with the bare value in µmol·min/L.

molecule | unit | value_reported
CCCCCC(CCC1C(O)CC2Cc3c(cccc3OCC(=O)O)CC21)OC(=O)c1ccc(O)c(O)c1 (stereo not drawn) [LXVI] | µmol·min/L | 0.17

## Input Which measured AUC value corresponds to CCCCCC(CCC1C(O)CC2Cc3c(cccc3OCC(=O)O)CC21)OC(=O)c1ccccc1O (stereo not drawn) [LXI] ?
## Output 1.09

## Input Param item: CCCCCC(CCC1C(O)CC2Cc3c(cccc3OCC(=O)O)CC21)OC(=O)C12CC3CC(CC(C3)C1)C2 (stereo not drawn) [LXIX]
## Output 38.15

## Input Param item: CCCCCC(CCC1C(O)CC2Cc3c(cccc3OCC(=O)O)CC21)OC(=O)CCC(=O)N1CCOCC1 (stereo not drawn) [XXXIII]
## Output 5.10

## Input Param item: CCCCCC(CCC1C(O)CC2Cc3c(cccc3OCC(=O)O)CC21)OC(=O)OCC(=O)O (stereo not drawn) [XXXIX]
## Output 0.00

## Input Param item: CCCCC[C@H]1CC[C@@H]2[C@H]3Cc4cccc(OCC(=O)O)c4C[C@H]3C[C@H]2OC(=O)O1 [XXIV]
## Output 55.49

## Input Param item: CCCCCC(CCC1C(O)CC2Cc3c(cccc3OCC(=O)O)CC21)OC(=O)COc1ccccc1 (stereo not drawn) [LXV]
## Output 49.22

## Input Param item: CCCCCC(CCC1C(O)CC2Cc3c(cccc3OCC(=O)O)CC21)OC(=O)CCC(=O)O (stereo not drawn) [XX]
## Output 6.61

## Input Param item: CCCCCC(CCC1C(O)CC2Cc3c(cccc3OCC(=O)O)CC21)OC(=O)NCC(=O)O (stereo not drawn) [XXXVIII]
## Output 0.00

## Input Param item: CCCCCC(O)CCC1C(OC)CC2Cc3c(cccc3OCC(=O)O)CC21 (stereo not drawn) [LIII]
## Output 1.33

## Input Param item: CCCCCC(CCC1C(O)CC2Cc3c(cccc3OCC(=O)O)CC21)OC(=O)C(C)N (stereo not drawn) [XXXI]
## Output 35.65

## Input Param item: CCCCCC(CCC1C(O)CC2Cc3c(cccc3OCC(=O)O)CC21)OC(=O)C(C)(C)C (stereo not drawn) [XLIX]
## Output 25.82

## Input Param item: CCCCCC(CCC1C(O)CC2Cc3c(cccc3OCC(=O)O)CC21)OC(=O)c1ccc(C)cc1 (stereo not drawn) [XLVIII]
## Output 20.45

## Input Param item: CCCCCC(CCC1C(O)CC2Cc3c(cccc3OCC(=O)O)CC21)OC(=O)CC (stereo not drawn) [LV]
## Output 53.25

## Input Param item: CCCCCC(CCC1C(O)CC2Cc3c(cccc3OCC(=O)O)CC21)OC(=O)NCCO (stereo not drawn) [LIX]
## Output 0.00

----------
- assay_info: Stability in cryopreserved hepatocytes, rat
Trep Concentration (μM) 0 min values for the compounds below.
Respond with the bare value in µM.

Reference set, count: 10
compound | Trep Concentration (μM) 0 min, µM
CCCCCC(CCC1C(O)CC2Cc3c(cccc3OCC(=O)O)CC21)OC(N)=O (centres unmarked) [XLII] | 0.33
CCCCCC(CCC1C(O)CC2Cc3c(cccc3OCC(=O)O)CC21)OC(C)=O (centres unmarked) [XLIII] | 0.00292
CCCCCC(CCC1C(O)CC2Cc3c(cccc3OCC(=O)O)CC21)OC(=O)COc1ccccc1 (centres unmarked) [LXV] | 0.0517
CCCCCC(CCC1C(O)CC2Cc3c(cccc3OCC(=O)O)CC21)OC(=O)CCC(=O)N1CCOCC1 (centres unmarked) [XXXIII] | 0
CCCCCC(CCC1C(O)CC2Cc3c(cccc3OCC(=O)O)CC21)OCC(=O)O (centres unmarked) [LVII] | 0
CCCCCC(CCC1C(O)CC2Cc3c(cccc3OCC(=O)O)CC21)OCCN1CCOCC1 (centres unmarked) [L] | 0
CCCCCC(CCC1C(O)CC2Cc3c(cccc3OCC(=O)O)CC21)OC(=O)CCN (centres unmarked) [XXXVII] | 0
CCCCCC(CCC1C(O)CC2Cc3c(cccc3OCC(=O)O)CC21)Oc1ccccc1C(=O)O (centres unmarked) [LVI] | 0
CCCCCC(CCC1C(O)CC2Cc3c(cccc3OCC(=O)O)CC21)OC(=O)NC (centres unmarked) [VIII] | 0
CCCCCC(CCC1C(O)CC2Cc3c(cccc3OCC(=O)O)CC21)OC(=O)CC (centres unmarked) [LV] | 0.0159

## Input Which measured Trep Concentration (μM) 0 min value corresponds to CCCCCC(CCC1C(O)CC2Cc3c(cccc3OCC(=O)O)CC21)OC(=O)CO (centres unmarked) [XLIV] ?
## Output 0.0352

## Input Param item: CCCCCC(CCC1C(O)CC2Cc3c(cccc3OCC(=O)O)CC21)OC(=O)C(N)CCCCN (centres unmarked) [XXXV]
## Output 0

## Input Param item: CCCCCC(CCC1C(O)CC2Cc3c(cccc3OCC(=O)O)CC21)OC(=O)NCCO (centres unmarked) [LIX]
## Output 0

----------
- assay_info: Stability in liver microsomes, human
Lab note: compare Trep Concentration 10 min against 0.3 µM. Equal or greater, write Criterion met. Smaller, write Criterion not met.

Some entries whose results are on file:
molecule | label
CCCCCC(CCC1C(O)CC2Cc3c(cccc3OCC(=O)O)CC21)OC(=O)CC (stereo not drawn) | Criterion met
CCCCCC(CCC1C(O)CC2Cc3c(cccc3OCC(=O)O)CC21)OC(=O)COc1ccc(OC(F)(F)F)cc1 (stereo not drawn) | Criterion met
CCCCC[C@H]1CC[C@@H]2[C@H]3Cc4cccc(OCC(=O)O)c4C[C@H]3C[C@H]2OC(=O)O1 | Criterion met
CCCCCC(CCC1C(O)CC2Cc3c(cccc3OCC(=O)O)CC21)OC(=O)NCC(=O)O (stereo not drawn) | Criterion not met

## Input Quick check: does CCCCCC(CCC1C(O)CC2Cc3c(cccc3OCC(=O)O)CC21)OC(=O)c1ccc(O)cc1 (stereo not drawn) have Trep Concentration 10 min greater than or equal to 0.3 µM?
## Output Criterion not met
